Hey, just so you know, these numbers are from ChEMBL document CHEMBL5723035.

- SYSTEM UNDER TEST: Protein arginine N-methyltransferase 8 (Homo sapiens)
- Sequence (Q9NR22 whole entry): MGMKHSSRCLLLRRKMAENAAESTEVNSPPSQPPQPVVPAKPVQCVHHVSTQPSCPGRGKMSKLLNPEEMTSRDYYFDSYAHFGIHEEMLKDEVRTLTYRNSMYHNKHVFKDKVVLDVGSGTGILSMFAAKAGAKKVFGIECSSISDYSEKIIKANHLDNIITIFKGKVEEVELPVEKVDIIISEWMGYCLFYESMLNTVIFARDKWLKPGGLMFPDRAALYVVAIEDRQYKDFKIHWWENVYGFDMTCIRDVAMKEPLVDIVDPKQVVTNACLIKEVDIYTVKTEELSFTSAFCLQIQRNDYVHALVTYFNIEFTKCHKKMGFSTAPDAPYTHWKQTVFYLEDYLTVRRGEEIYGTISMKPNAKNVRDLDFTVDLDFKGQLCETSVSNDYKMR
- ASSAY INFO: Affinity Biochemical interaction: (enzymatic assay (inhibition of methyl transfer from radiolabelled substrate [3H]SAM to peptide)) EUB0002245aCl PRMT8
MEASURED ENDPOINT: IC50 (nM)
Response body: numeric value in nM, unit text excluded.

Summary line: CCOCC1(COCC)CCC(c2n[nH]cc2CN(C)CCNC)CC1 , Protein arginine N-methyltransferase 8 (Homo sapiens), reported IC50 = 3.9

====

- SYSTEM UNDER TEST: Caspase-10 (Homo sapiens, UniProt Q92851)
- Sequence (Q92851 220-415 limits assumed): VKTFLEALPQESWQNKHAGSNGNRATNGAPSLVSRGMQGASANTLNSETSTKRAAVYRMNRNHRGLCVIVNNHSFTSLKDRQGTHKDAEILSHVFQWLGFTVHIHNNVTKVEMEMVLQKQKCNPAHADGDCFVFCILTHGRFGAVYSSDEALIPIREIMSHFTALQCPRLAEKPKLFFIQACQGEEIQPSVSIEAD
- Sequence (Q92851 416-521 limits assumed): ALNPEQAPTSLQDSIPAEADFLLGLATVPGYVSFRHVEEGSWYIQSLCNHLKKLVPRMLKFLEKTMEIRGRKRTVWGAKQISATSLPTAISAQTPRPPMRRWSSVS
- ASSAY INFO: Affinity Biochemical interaction: (enzymatic assay (fluorogenic substrate cleavage)) EUB0002173aAD CASP10
MEASURED ENDPOINT: pKi
FYI, pKi means -log10 of a concentration in mol per litre.

Summary line: CC(=O)N[C@@H](CC(=O)O)C(=O)N[C@@H](CCC(=O)O)C(=O)N[C@H](C(=O)N[C@H](C=O)CC(=O)O)C(C)C , Caspase-10 (Homo sapiens, UniProt Q92851), reported pKi = 7.92
